organism: Homo sapiens; experiment: Selectivity ratio of Ki for CB2 receptor (unknown origin) to Ki for human CB1 receptor
For each entry below, report its Ratio Ki value.
Answers are plain numbers.

{"columns": ["Chem smiles", "Ratio Ki"],
 "data": [
  ["O=C(NC1CCN(c2ncnc3c2nc(-c2ccccc2Cl)n3-c2ccc(Cl)cc2)CC1)C1CCCC1", 39],
  ["O=S(=O)(NC1CCN(c2ncnc3c2nc(-c2ccccc2Cl)n3-c2ccc(Cl)cc2)CC1)C(F)(F)F", 738],
  ["CCCCC(=O)NC1CCN(c2ncnc3c2nc(-c2ccccc2Cl)n3-c2ccc(Cl)cc2)CC1", 54],
  ["O=C(CC1CCCC1)NC1CCN(c2ncnc3c2nc(-c2ccccc2Cl)n3-c2ccc(Cl)cc2)CC1", 282],
  ["CC(C)CC(=O)NC1CCN(c2ncnc3c2nc(-c2ccccc2Cl)n3-c2ccc(Cl)cc2)CC1", 22]
]}

Field: Ratio Ki. Fill in for each record below.
1. CCOC(=O)NC1CCN(c2ncnc3c2nc(-c2ccccc2Cl)n3-c2ccc(Cl)cc2)CC1
2. CC(C)CCC(=O)NC1CCN(c2ncnc3c2nc(-c2ccccc2Cl)n3-c2ccc(Cl)cc2)CC1
3. O=C(NC1CCN(c2ncnc3c2nc(-c2ccccc2Cl)n3-c2ccc(Cl)cc2)CC1)C1CCCCC1

Found:
1: 119; 2: 81; 3: 249
